Recorded Peak areas by entry
# System: microbiota present in the faecal samples
# assay_protocol: Faecal fermentation, distribution of oligosaccharides (HPAEC-PAD peak areas)
# condition_info: Comp. Ex. 1 sample, 24 h, Donor C
value_type: Peak areas

| compound | measurement |
| --- | --- |
| OC[C@H]1O[C@@H](O[C@H]2[C@@H](O)[C@@H](CO)O[C@@H](O[C@H]3[C@H](O)[C@@H](O)C(O)O[C@@H]3CO)[C@@H]2O)[C@H](O)[C@@H](O)[C@H]1O (stereo partly shown) | 0.4 |
| OC[C@H]1O[C@@H](OC[C@H]2OC(O)[C@H](O)[C@@H](O)[C@@H]2O)[C@H](O)[C@@H](O)[C@H]1O (stereo partly shown) | 0.0 |
| OC[C@H]1O[C@@H](O[C@H]2[C@@H](O)[C@@H](CO)O[C@@H](O[C@H]3[C@@H](O)[C@@H](CO)O[C@@H](O[C@H]4[C@H](O)[C@@H](O)C(O)O[C@@H]4CO)[C@@H]3O)[C@@H]2O)[C@H](O)[C@@H](O)[C@H]1O (stereo partly shown) | 0.0 |
| OC[C@H]1O[C@@H](O[C@H]2[C@H](O)[C@@H](O)C(O)O[C@@H]2CO)[C@H](O)[C@@H](O)[C@H]1O (stereo partly shown) | 0.4 |
